- procedure_summary: Toxicity in iv dosed mouse assessed as loss of righting reflex
- Type: organism-based
- condition_set: in vivo, read-out: HD50 (the source's name)
measure: TD50 (µmol/kg)
Write it as a number; the unit µmol/kg goes unstated.

Q) Looking for the measured TD50 of CNC(=O)Cn1c(=O)n(C2CCN(CCC(Oc3cc(OC)ccc3C)C(C)C)CC2)c2ccccc21 (racemic) , can you help?
A) 4.7

###

- assayed_system: Voltage-gated inwardly rectifying potassium channel KCNH2 (Homo sapiens)
- Sequence (Q12809 whole entry): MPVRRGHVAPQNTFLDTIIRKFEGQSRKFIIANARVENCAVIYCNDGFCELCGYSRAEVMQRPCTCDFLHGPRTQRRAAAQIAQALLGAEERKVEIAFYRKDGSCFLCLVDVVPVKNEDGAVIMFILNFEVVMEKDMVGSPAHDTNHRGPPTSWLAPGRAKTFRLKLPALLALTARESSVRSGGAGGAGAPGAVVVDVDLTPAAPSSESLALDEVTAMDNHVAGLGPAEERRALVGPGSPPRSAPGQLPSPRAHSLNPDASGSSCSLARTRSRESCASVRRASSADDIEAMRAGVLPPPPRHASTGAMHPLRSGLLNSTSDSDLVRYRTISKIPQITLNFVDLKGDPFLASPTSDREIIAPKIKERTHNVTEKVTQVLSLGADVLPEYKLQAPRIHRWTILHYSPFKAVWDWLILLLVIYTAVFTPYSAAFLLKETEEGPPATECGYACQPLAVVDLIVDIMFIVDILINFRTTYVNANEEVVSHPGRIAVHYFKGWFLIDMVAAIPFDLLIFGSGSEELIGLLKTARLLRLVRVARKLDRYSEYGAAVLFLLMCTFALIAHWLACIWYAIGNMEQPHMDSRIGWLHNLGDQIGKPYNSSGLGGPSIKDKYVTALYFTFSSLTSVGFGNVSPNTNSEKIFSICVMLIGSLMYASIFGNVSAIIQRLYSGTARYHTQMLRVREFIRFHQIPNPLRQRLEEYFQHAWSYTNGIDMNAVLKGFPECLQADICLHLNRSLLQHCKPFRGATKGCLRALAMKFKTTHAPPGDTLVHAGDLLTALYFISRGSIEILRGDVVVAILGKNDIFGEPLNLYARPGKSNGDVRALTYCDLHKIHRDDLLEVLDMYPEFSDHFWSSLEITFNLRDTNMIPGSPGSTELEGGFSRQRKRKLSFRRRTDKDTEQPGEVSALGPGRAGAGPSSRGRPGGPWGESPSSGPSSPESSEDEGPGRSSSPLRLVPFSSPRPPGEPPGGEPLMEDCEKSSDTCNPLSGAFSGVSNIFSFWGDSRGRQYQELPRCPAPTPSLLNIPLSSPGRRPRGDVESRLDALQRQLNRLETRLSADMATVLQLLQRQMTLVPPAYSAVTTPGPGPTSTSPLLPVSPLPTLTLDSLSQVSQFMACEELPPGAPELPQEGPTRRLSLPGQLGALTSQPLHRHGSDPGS
measure: Ki (µM)
Write it as a number; the unit µM goes unstated.

Q) Lookup: Ki / Voltage-gated inwardly rectifying potassium channel KCNH2 (Homo sapiens) / CNC(=O)Cn1c(=O)n(C2CCN(CCC(Oc3cc(OC)ccc3C)C(C)C)CC2)c2ccccc21 (racemic)
A) 0.056
